src = patent US20050176069A1

Target: T1, CEGPCR4 (C. elegans)
T1 construct: Expressed in CHO cells
T1 chain: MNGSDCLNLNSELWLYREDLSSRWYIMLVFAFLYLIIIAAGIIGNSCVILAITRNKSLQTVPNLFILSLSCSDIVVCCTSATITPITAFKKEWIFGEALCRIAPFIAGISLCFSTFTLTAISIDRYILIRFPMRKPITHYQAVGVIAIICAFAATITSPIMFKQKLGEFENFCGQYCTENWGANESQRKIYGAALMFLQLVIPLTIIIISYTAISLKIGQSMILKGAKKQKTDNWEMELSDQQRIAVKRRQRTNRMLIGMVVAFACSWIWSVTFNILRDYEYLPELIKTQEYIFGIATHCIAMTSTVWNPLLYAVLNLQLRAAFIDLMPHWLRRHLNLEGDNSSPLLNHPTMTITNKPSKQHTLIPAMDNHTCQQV
Assay: competition binding assay, CEGPCR4/CHO membranes, vs [125I-Y]DVPGVLRF-NH2
Where no end group is shown, it is not given here. [ ]: non-standard residue; d: D form. Nle = CCCC[C@H](N)C(=O)O
metric_name: IC50

Illustrative cases are given below, each with its answer.
{"binder": "EIPGVLRF-NH2 [EIPGVLRF-NH2]", "IC50": "0.5 to 10 nM"}
{"binder": "SEVPGVLRF-NH2 [SEVPGVLRF-NH2]", "IC50": "0.5 to 10 nM"}
{"binder": "IL[Nle]RF-NH2 (N-terminus assumed; SMILES CCCC[C@H](NC(=O)[C@H](CC(C)C)NC(=O)[C@@H](N)[C@@H](C)CC)C(=O)N[C@@H](CCCNC(=N)N)C(=O)N[C@@H](Cc1ccccc1)C(N)=O, Synthetic) [ILNleRF-NH2]", "IC50": "60000 to 900000 nM"}
{"binder": "SAEPFGTMRF-NH2 [SAEPFGTMRF-NH2]", "IC50": "50000 to 500000 nM"}

Request: What does the record list as IC50 for Ac-VPGVLRF-NH2 [Ac-VPGVLRF-NH2] ?
Response: 1 to 60 nM

Request: Entry to check: KSVPGVLRF-NH2 [KSVPGVLRF-NH2]
Response: 0.5 to 10 nM

Request: For SVPGVLRF-NH2 [SVPGVLRF-NH2] then?
Response: 0.5 to 10 nM

Request: Another binder to check: EIVFHQISPIFFRF-NH2 [EIVFHQISPIFFRF-NH2]
Response: 50000 to 500000 nM
